System: Capan-2 cell homogenate
Protocol: Prodrug hydrolysis in Capan-2 cell homogenate with the presence and the absence of selective enzyme inhibitors
Format: in vitro ADME
Condition: no inhibitor; 37 °C, pH 7.4 phosphate buffer; 200 µM substrate; mean ± s.d.
Readout label: Half Life, Capan-2 Cell Homogenate (min)

Some solved entries appear below for comparison.
Compound: N[C@@H](Cc1ccccc1)C(=O)NCC(=O)OC[C@H]1O[C@@H](n2cc(F)c(=O)[nH]c2=O)C[C@@H]1O [5'-O-L-phenylalanyl-L-glycyl-floxuridine]
Half Life, Capan-2 Cell Homogenate (min): 4.3

Compound: CC(C)[C@H](N)C(=O)N[C@@H](Cc1ccccc1)C(=O)OC[C@H]1O[C@@H](n2cc(F)c(=O)[nH]c2=O)C[C@@H]1O [5'-O-L-valyl-L-phenylalanyl-floxuridine]
Half Life, Capan-2 Cell Homogenate (min): 56.2

Compound: N[C@@H](Cc1ccccc1)C(=O)OC[C@H]1O[C@@H](n2cc(F)c(=O)[nH]c2=O)C[C@@H]1O [5'-O-L-phenylalanylfloxuridine]
Half Life, Capan-2 Cell Homogenate (min): 3.0

P: CC(C)C[C@H](N)C(=O)NCC(=O)OC[C@H]1O[C@@H](n2cc(F)c(=O)[nH]c2=O)C[C@@H]1O [5'-O-L-leucyl-L-glycylfloxuridine]
Q: N[C@@H](Cc1ccccc1)C(=O)N[C@@H](Cc1ccc(O)cc1)C(=O)OC[C@H]1O[C@@H](n2cc(F)c(=O)[nH]c2=O)C[C@@H]1O
Which value of Half Life, Capan-2 Cell Homogenate is smaller, the one for P or the one for Q ? Indicate your choice by writing its label.
P
(P: 3.9 min, Q: 42.8 min)

----------
Tested on: Capan-2 cell homogenate
Protocol: Prodrug hydrolysis in Capan-2 cell homogenate with the presence and the absence of selective enzyme inhibitors
Type: in vitro ADME
Condition: Capan-2 cell homogenate with puromycin; 37 °C, pH 7.4
Readout label: Half Life, Aminopeptidase Inhibitor (min)

Item smiles: N[C@@H](Cc1ccccc1)C(=O)OC[C@H]1O[C@@H](n2cc(F)c(=O)[nH]c2=O)C[C@@H]1O
Half Life, Aminopeptidase Inhibitor, min: 48.7

a: N[C@@H](Cc1ccccc1)C(=O)NCC(=O)OC[C@H]1O[C@@H](n2cc(F)c(=O)[nH]c2=O)C[C@@H]1O
b: CC(C)[C@H](N)C(=O)N[C@@H](Cc1ccccc1)C(=O)OC[C@H]1O[C@@H](n2cc(F)c(=O)[nH]c2=O)C[C@@H]1O
c: CC(C)C[C@H](N)C(=O)NCC(=O)OC[C@H]1O[C@@H](n2cc(F)c(=O)[nH]c2=O)C[C@@H]1O
d: N[C@@H](Cc1ccccc1)C(=O)N[C@@H](Cc1ccc(O)cc1)C(=O)OC[C@H]1O[C@@H](n2cc(F)c(=O)[nH]c2=O)C[C@@H]1O
Sort the 4 compounds by Half Life, Aminopeptidase Inhibitor; largest first, smallest last. Please write the labels in the order that was asked for.
b, d, a, c
(b: 93.6 min, d: 54.7 min, a: 25.7 min, c: 14.0 min)

----------
Test system: Capan-2 cell homogenate
Protocol: Prodrug hydrolysis in Capan-2 cell homogenate with the presence and the absence of selective enzyme inhibitors
Type: in vitro ADME
Condition: Capan-2 cell homogenate with H-Ala-Ala-Phe-CMK CF3CO2H; 37 °C, pH 7.4
Description: Hydrolysis StudiesPreparation of Capan-2 cell homogenates. Preparation of cell homogenates has been reported previously. Confluent Capan-2 cells (2 plates; 150 mm × 25 mm plate) were rinsed with saline twice. […] Preparation of Cytosolic Enzyme Extract. […] Protein amount was quantified with the Bio-Rad (Hercules, CA, USA) DC Protein Assay using bovine serum albumin as a standard. […] The filtrate wasthen analyzed via reverse-phaseHPLC. […]
Readout label: Half Life, TPP 2 Inhibitor (min)

1: N[C@@H](Cc1ccccc1)C(=O)N[C@@H](Cc1ccc(O)cc1)C(=O)OC[C@H]1O[C@@H](n2cc(F)c(=O)[nH]c2=O)C[C@@H]1O
2: N[C@@H](Cc1ccccc1)C(=O)NCC(=O)OC[C@H]1O[C@@H](n2cc(F)c(=O)[nH]c2=O)C[C@@H]1O
Form field 'greater Half Life, TPP 2 Inhibitor' accepts 1 or 2 ; which applies? Let me know the label of the one you choose.
1

I: CC(C)[C@H](N)C(=O)N[C@@H](Cc1ccccc1)C(=O)OC[C@H]1O[C@@H](n2cc(F)c(=O)[nH]c2=O)C[C@@H]1O
II: CC(C)C[C@H](N)C(=O)NCC(=O)OC[C@H]1O[C@@H](n2cc(F)c(=O)[nH]c2=O)C[C@@H]1O
Endpoint returns the identifier whose Half Life, TPP 2 Inhibitor is numerically larger, either I or II . Identify your pick by its label.
I

Attribution: paper PMC3565751
